# ASSAY OVERVIEW: Cytotoxicity against human GXF251L cells after 4 days by propidium iodide assay
# Type: functional, cell-based
# CONDITION SUMMARY: GXF 251L, 96 h
READOUT KIND: IC50 (nM)
All answers are understood in nM, so give the number only.

The measured IC50 associated with CNC1=C(Cl)C(=O)c2cc(C)ncc2C1=O reads 1750

The measured IC50 associated with CNC1=CC(=O)c2cc(C)ncc2C1=O reads 3600

The measured IC50 associated with CNC1=CC(=O)c2c(cnc(C)c2C)C1=O reads 31900

The measured IC50 associated with CNC1=CC(=O)c2cc(C(=O)OC)ncc2C1=O reads 167
